# assay-target: OTU domain-containing protein 3 (Homo sapiens) (UniProt Q5T2D3)
# Sequence (Q5T2D3 whole entry, looked up, the tested form may be a part): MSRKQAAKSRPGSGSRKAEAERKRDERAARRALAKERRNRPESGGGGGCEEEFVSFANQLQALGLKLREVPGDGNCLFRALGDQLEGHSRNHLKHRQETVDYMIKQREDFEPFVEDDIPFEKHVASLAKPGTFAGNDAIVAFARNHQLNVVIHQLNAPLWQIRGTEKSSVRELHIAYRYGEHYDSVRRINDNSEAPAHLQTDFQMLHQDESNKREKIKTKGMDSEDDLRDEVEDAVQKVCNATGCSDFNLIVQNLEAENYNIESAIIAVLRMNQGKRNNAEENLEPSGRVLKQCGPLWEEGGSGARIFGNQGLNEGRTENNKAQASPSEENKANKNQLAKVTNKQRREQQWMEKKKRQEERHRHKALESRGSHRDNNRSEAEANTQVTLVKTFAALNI
# protocol-summary: Validation of screening hits, potency titration, in vitro enzymatic, OTU domain-containing protein 3 DUB inhibitors (AID 1645868)
# condition-context: purified OTUD3, ubiquitin-rhodamine cleavage fluorescence, 2 h
The source made the active and inactive calls.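 Rule for the calls: active = maximal percent inhibition of the deubiquitinase OTUD3 of at least 30% across the tested doses; inactive = the rest.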
Outcome codes: TRUE (active), FALSE (inactive)

>  <molecule>
Cc1ccc(Cn2c(=O)n(CCC(=O)NCCc3ccccc3)c(=O)c3ccccc32)cc1

>  <class-assignment>
TRUE

$$$$
>  <molecule>
Cc1ccccc1C(=O)OCCN1C(=O)c2cccc3c(N4CCCCC4)ccc(c23)C1=O

>  <class-assignment>
FALSE

$$$$
>  <molecule>
N#Cc1ccc(-c2ccc(OCC(=O)Nc3ccc4c(c3)OCO4)cc2)cc1

>  <class-assignment>
FALSE

$$$$
>  <molecule>
O=C(NCCN1CCCC1)C1CCN(c2cnc(N3CCCCC3)nc2)CC1

>  <class-assignment>
FALSE

$$$$
>  <molecule>
COc1cc(-c2ccno2)ccc1S(=O)(=O)Nc1ccccc1Cl

>  <class-assignment>
FALSE

$$$$
>  <molecule>
Cc1ccc(C)c(-c2cc3c(=O)n(Cc4noc(CN5CCCCC5)n4)ccn3n2)c1

>  <class-assignment>
FALSE

$$$$
>  <molecule>
CCOc1ccc(CCNC(=O)c2ccc3c(c2)N(CC)C(=O)c2ccccc2S3)cc1OCC

>  <class-assignment>
FALSE

$$$$
>  <molecule>
COc1ccc(-c2cc(N3CCC(NC(=O)c4ccccc4)C3)n[nH]2)cc1 (stereo not given)

>  <class-assignment>
TRUE

$$$$
>  <molecule>
CC1OC2CC(O)C1(O)C1=C2C(O)=C(C(N)=O)C(=N)C1=O (stereo not given)

>  <class-assignment>
FALSE

$$$$
>  <molecule>
CCC(C)Oc1cccc(C(=O)Nc2ccc(CN3CCOCC3)cc2)c1 (stereo not given)

>  <class-assignment>
FALSE

$$$$
>  <molecule>
COc1cccc(C(=O)Oc2ccc3c(=O)c(-c4ccc(OC)c(OC)c4)coc3c2)c1

>  <class-assignment>
FALSE

$$$$
>  <molecule>
COc1ccc(-c2cc(C(F)F)n3ncc(C(=O)Nc4ccc5c(c4)OCCO5)c3n2)cc1

>  <class-assignment>
FALSE

$$$$
>  <molecule>
CCOc1ccccc1NC(=O)Cn1c(-c2ccc3c(c2)OCO3)cn(-c2ccc(OC)cc2)c1=O

>  <class-assignment>
FALSE

$$$$
>  <molecule>
Cc1cc(O)c(=O)cc2c1C[C@H]1CC(C)(C)/C=C/C[C@@]3(C)Oc4cc(=O)c(O)cc(C)c4C[C@@H]3C[C@H](O)[C@]1(C)O2

>  <class-assignment>
FALSE

$$$$
>  <molecule>
COc1ccc(O)c(C(=O)OCc2cc(=O)oc3ccc4ccccc4c23)c1

>  <class-assignment>
FALSE

$$$$
>  <molecule>
O=S(=O)(Cc1nnc(-c2ccccc2C(F)(F)F)o1)c1ccc(Cl)cc1

>  <class-assignment>
FALSE

$$$$
>  <molecule>
COc1ccc(OC)c(-c2cc(C(=O)Nc3c(C)nn(Cc4ccccc4)c3C)no2)c1

>  <class-assignment>
FALSE

$$$$
>  <molecule>
COc1ccc(NC(=O)Cn2cc(C(=O)c3ccc(F)cc3)c(=O)c3cc(C)ccc32)cc1

>  <class-assignment>
TRUE

$$$$
>  <molecule>
COc1cccc(N2CCN(C(=O)CCNS(=O)(=O)c3ccc4c(c3)CCC(=O)N4)CC2)c1

>  <class-assignment>
FALSE

$$$$
>  <molecule>
COc1ccc(NC(=O)c2nnn(-c3cccc(C)c3)c2C)cc1

>  <class-assignment>
FALSE

$$$$

---

# assay-target: OTU domain-containing protein 3 (Homo sapiens) (UniProt Q5T2D3)
# protocol-summary: Validation of screening hits, potency titration, in vitro enzymatic, OTU domain-containing protein 3 DUB inhibitors (AID 1645868)
# condition-context: purified OTUD3, ubiquitin-rhodamine cleavage fluorescence, 2 h
Calls of active or inactive are those of the source.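 The calls were made as follows: active = maximal percent inhibition of the deubiquitinase OTUD3 of at least 30% across the tested doses; inactive = the rest.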
Outcome codes: TRUE for active, FALSE for inactive

>  <compound>
Cc1cnc2nc3c(cc2c1)CN(CCc1ccc(Cl)cc1)CC3

>  <class-assignment>
FALSE

$$$$
>  <compound>
CC(C)CC1NC(=O)C2CCCN2C1=O (stereo not given)

>  <class-assignment>
FALSE

$$$$
>  <compound>
Nc1ccccc1SC(CC(=O)c1ccc(Cl)cc1)c1ccsc1 (stereo not given)

>  <class-assignment>
FALSE

$$$$
>  <compound>
COc1ccc(Nc2nc3c(S(=O)(=O)c4ccc(C)cc4)nnn3c3ccsc23)c(OC)c1

>  <class-assignment>
TRUE

$$$$
>  <compound>
O=C(COc1ccc(Cl)cc1Cl)Nc1ccccc1-c1nc2ccccc2[nH]1

>  <class-assignment>
TRUE

$$$$

---

# assay-target: OTU domain-containing protein 3 (Homo sapiens) (UniProt Q5T2D3)
# protocol-summary: Validation of screening hits, potency titration, in vitro enzymatic, OTU domain-containing protein 3 DUB inhibitors (AID 1645868)
# condition-context: purified OTUD3, ubiquitin-rhodamine cleavage fluorescence, 2 h
Active and inactive are the calls of the source.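 How the source made its calls: active means maximal percent inhibition of the deubiquitinase OTUD3 of at least 30% across the tested doses; inactive means the rest.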
Outcome codes: active, inactive

>  <compound>
COc1ccc(C(=O)Nc2sc3c(c2C(=O)NCc2cccnc2)CCCC3)cc1

>  <assay-target>
OTU domain-containing protein 3 (Homo sapiens) (UniProt Q5T2D3)

>  <class-assignment>
inactive

$$$$
>  <compound>
CSc1ncc(C(=O)NC(C)c2ccccc2)c(-c2ccccc2)n1 (stereo unspecified)

>  <assay-target>
OTU domain-containing protein 3 (Homo sapiens) (UniProt Q5T2D3)

>  <class-assignment>
active

$$$$
>  <compound>
O=C(Nc1ccc2nccnc2c1)c1cccc(C(F)(F)F)c1

>  <assay-target>
OTU domain-containing protein 3 (Homo sapiens) (UniProt Q5T2D3)

>  <class-assignment>
inactive

$$$$
>  <compound>
COc1ccc(C(=O)CCN2CCOCC2)cc1[N+](=O)[O-]

>  <assay-target>
OTU domain-containing protein 3 (Homo sapiens) (UniProt Q5T2D3)

>  <class-assignment>
inactive

$$$$
>  <compound>
COc1ccc(-c2cc3c(=O)n(CC(=O)Nc4ccccc4F)ccn3n2)cc1OC

>  <assay-target>
OTU domain-containing protein 3 (Homo sapiens) (UniProt Q5T2D3)

>  <class-assignment>
inactive

$$$$
>  <compound>
O=C(Cn1c(=O)c2sccc2n(Cc2ccc([N+](=O)[O-])cc2)c1=O)NCCc1ccccc1

>  <assay-target>
OTU domain-containing protein 3 (Homo sapiens) (UniProt Q5T2D3)

>  <class-assignment>
active

$$$$
>  <compound>
O=C(NCc1ccccc1Cl)C1CCCN(c2nc3ccsc3c(=O)s2)C1 (stereo unspecified)

>  <assay-target>
OTU domain-containing protein 3 (Homo sapiens) (UniProt Q5T2D3)

>  <class-assignment>
inactive

$$$$
>  <compound>
O=c1c2ccccc2ncn1C1CCN(S(=O)(=O)c2ccccc2F)CC1

>  <assay-target>
OTU domain-containing protein 3 (Homo sapiens) (UniProt Q5T2D3)

>  <class-assignment>
inactive

$$$$
>  <compound>
CCOc1ccc(C2=NCCNC3=C2C(c2ccccc2)N(c2ccccc2)C3=O)cc1 (stereo unspecified)

>  <assay-target>
OTU domain-containing protein 3 (Homo sapiens) (UniProt Q5T2D3)

>  <class-assignment>
inactive

$$$$
>  <compound>
Cc1ccc(Nc2nc(Nc3cccc(F)c3)nc3nccnc23)c(C)c1

>  <assay-target>
OTU domain-containing protein 3 (Homo sapiens) (UniProt Q5T2D3)

>  <class-assignment>
inactive

$$$$
>  <compound>
O=C(CSc1cn(Cc2ccccc2)c2ccccc12)Nc1ccc2c(c1)OCCO2

>  <assay-target>
OTU domain-containing protein 3 (Homo sapiens) (UniProt Q5T2D3)

>  <class-assignment>
inactive

$$$$

---

# assay-target: OTU domain-containing protein 3 (Homo sapiens) (UniProt Q5T2D3)
# protocol-summary: Validation of screening hits, potency titration, in vitro enzymatic, OTU domain-containing protein 3 DUB inhibitors (AID 1645868)
# condition-context: purified OTUD3, ubiquitin-rhodamine cleavage fluorescence, 2 h
Active and inactive are the calls of the source.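 Rule for the calls: active = maximal percent inhibition of the deubiquitinase OTUD3 of at least 30% across the tested doses; inactive = the rest.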
Outcome codes: active, inactive

>  <compound>
CCC(=O)Nc1ccc2c(c1)nc(CSc1nccc(C)n1)n2CC

>  <class-assignment>
inactive

$$$$
>  <compound>
CC(OC(=O)c1ccc2c(c1)OCCO2)C(=O)NCC1CCCCC1 (stereo not given)

>  <class-assignment>
active

$$$$
>  <compound>
O=C(NCc1ccc(F)cc1)N1CCC2(C1)Nc1cccnc1NC2=NCc1ccccc1 (stereo not given)

>  <class-assignment>
inactive

$$$$
>  <compound>
O=C(COC(=O)c1cc(Cl)ccc1O)Nc1ccc2c(c1)OCCO2

>  <class-assignment>
active

$$$$
>  <compound>
CCn1c(COc2cccc(C(F)(F)F)c2)nnc1SCc1ccc(Cl)cc1

>  <class-assignment>
active

$$$$
>  <compound>
Cc1ccc2nc(CNC(=O)c3ccccc3-c3nc(-c4ccc(F)cc4)no3)[nH]c2c1

>  <class-assignment>
active

$$$$
>  <compound>
CCn1c(SCc2cccc(C)c2)nnc1-c1cnccn1

>  <class-assignment>
inactive

$$$$
>  <compound>
Cc1cc(=O)oc2cc(OCC(=O)Nc3cc(Cl)ccc3N3CCOCC3)ccc12

>  <class-assignment>
inactive

$$$$
>  <compound>
O=C(Nc1ccc2c(c1)OCCO2)c1cc(CN2CCCC2)on1

>  <class-assignment>
inactive

$$$$
>  <compound>
Cc1noc(-c2cccn(Cc3cccc(C(F)(F)F)c3)c2=O)n1

>  <class-assignment>
inactive

$$$$

Reference source for all entries: PubChem BioAssay AID1645868
